# Organism: Homo sapiens
# procedure.details: Selectivity index, ratio of IC50 for human MRC5 cells by MTT assay to IC50 for human recombinant aromatase expressed in baculovirus infected insect cells
The reader will find reported Ratio IC50 values listed item by item below.
assay.metric: Ratio IC50

>>> measured("O=S(=O)(NCc1cccc(CNS(=O)(=O)c2ccc(Cl)cc2)c1)c1ccc(Cl)cc1")
1370
>>> measured("O=S(=O)(NCc1cccc(CNS(=O)(=O)c2ccc(F)cc2)c1)c1ccc(F)cc1")
"> 50.5"
>>> measured("Nc1cccc(S(=O)(=O)NCc2cccc(CNS(=O)(=O)c3cccc(N)c3)c2)c1")
"> 33.9"

====

The reader will find reported IC50 values listed item by item below.
# system.name: Aromatase (Homo sapiens)
# Sequence (P11511 whole entry): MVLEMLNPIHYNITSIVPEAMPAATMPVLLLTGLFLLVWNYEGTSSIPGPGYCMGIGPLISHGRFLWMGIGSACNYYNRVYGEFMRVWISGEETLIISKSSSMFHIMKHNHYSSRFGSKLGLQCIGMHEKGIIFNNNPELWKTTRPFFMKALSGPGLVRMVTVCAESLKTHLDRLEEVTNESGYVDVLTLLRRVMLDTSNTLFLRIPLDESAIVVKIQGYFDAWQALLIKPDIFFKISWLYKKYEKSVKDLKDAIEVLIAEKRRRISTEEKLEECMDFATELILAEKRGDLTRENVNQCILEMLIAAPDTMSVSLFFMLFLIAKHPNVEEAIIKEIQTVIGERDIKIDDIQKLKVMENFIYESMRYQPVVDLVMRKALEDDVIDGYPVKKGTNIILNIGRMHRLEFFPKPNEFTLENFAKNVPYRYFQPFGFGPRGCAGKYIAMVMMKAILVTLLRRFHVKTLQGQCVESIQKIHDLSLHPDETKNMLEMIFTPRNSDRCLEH
# procedure.details: Inhibition of recombinant human aromatase expressed in baculovirus infected insect cells using O-benzyl fluorescein benzyl ester as substrate in presence of NADPH generating system by fluorescence based analysis
assay.metric: IC50 (nM)

>>> measured("O=[N+]([O-])c1ccc(S(=O)(=O)NCc2cccc(CNS(=O)(=O)c3ccc([N+](=O)[O-])cc3)c2)cc1")
370
>>> measured("O=S(=O)(NCc1cccc(CNS(=O)(=O)c2ccc(Br)cc2)c1)c1ccc(Br)cc1")
60
>>> measured("O=[N+]([O-])c1ccccc1S(=O)(=O)NCc1cccc(CNS(=O)(=O)c2ccccc2[N+](=O)[O-])c1")
3670
